Target: T1, human IgE (human, UniProt P01854 1-428)
T1 construct: written under the same molecule; also called IgE (Abcam ab65866); soluble IgE
T1 sequence (P01854 other isoform, or with tags, fused parts or gaps limits assumed, form in doubt): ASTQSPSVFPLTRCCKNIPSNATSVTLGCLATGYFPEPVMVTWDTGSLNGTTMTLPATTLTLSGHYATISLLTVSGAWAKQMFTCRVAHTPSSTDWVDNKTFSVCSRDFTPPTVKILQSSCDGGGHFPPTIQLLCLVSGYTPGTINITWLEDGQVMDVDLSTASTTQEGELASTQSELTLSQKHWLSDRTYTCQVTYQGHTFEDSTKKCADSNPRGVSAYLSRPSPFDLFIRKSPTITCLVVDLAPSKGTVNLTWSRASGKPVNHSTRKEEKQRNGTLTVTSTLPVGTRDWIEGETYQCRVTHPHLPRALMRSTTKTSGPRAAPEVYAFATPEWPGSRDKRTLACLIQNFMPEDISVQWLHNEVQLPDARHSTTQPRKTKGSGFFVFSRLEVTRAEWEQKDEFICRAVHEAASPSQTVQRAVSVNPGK
Test: ELISA, clone lysate on IgE-coated plate
measured-endpoint: R1 Screening OD450

binder: 35G3 (VHH) VHH: EVQLLESGGGEVQPGGSLRLSCVASGLTFSSYNMGWLRQAPGKEREFVGLSGSSSTSTYYAESVKGRFTISRDNAKNTVYLQMTSLRAEDTAVYYCAARRLLSRYWSDRSWDFWGQGTLVTVEP
test-result: 1.07
//
binder: 39C11 (VHH) VHH: EVQLLESGGGEVQPGGSLRLSCVASGLTFSSYNMGWLRQAPGKEREFVGLSGSSSTSTYYAESVKGRFTISRDNAKNTVYLQMTSLRAEDTAVYYCAARRLLSTYWSMRSWDFWGQGTLVTVEP
test-result: 1
